FYI, the data here is from ChEMBL document CHEMBL1687712.

System: Woodchuck hepatitis virus
assay overview: Antiviral activity against Woodchuck hepatitis virus infected in woodchuck assessed as reduction of viral antigen positive hepatocytes at 15 mg/kg, po qd for 48 weeks measured on 60th week (reference value: 26 %)
Type: functional, Hepatocyte
Parameters: scale not given: the % may be the effect or the level left
Overview of recorded Activity for various compounds
metric name: Activity

INSERT INTO assay_data (compound, endpoint_result) VALUES
  ('CC(C)(C)C(=O)OCOP(=O)(COCCn1cnc2c(N)ncnc21)OCOC(=O)C(C)(C)C [ADEFOVIR DIPIVOXIL]', '48%'),
  ('Nc1nc(=O)n([C@@H]2CS[C@H](CO)O2)cc1F [EMTRICITABINE]', '64%'),
  ('Nc1ccn([C@@H]2CS[C@H](CO)O2)c(=O)n1 [LAMIVUDINE]', '48%'),
  ('CC(C)OC(=O)OCOP(=O)(CO[C@H](C)Cn1cnc2c(N)ncnc21)OCOC(=O)OC(C)C.O=C(O)/C=C/C(=O)O [TENOFOVIR DISOPROXIL FUMARATE]', '39%');
